These data points were gathered from paper PMC6204753.

Could you please report measured fold increase for the items listed next?
measured_on: SdiA (Salmonella enterica subsp. enterica serovar Typhimurium, UniProt O66040)
Sequence (O66040 entry or part of it): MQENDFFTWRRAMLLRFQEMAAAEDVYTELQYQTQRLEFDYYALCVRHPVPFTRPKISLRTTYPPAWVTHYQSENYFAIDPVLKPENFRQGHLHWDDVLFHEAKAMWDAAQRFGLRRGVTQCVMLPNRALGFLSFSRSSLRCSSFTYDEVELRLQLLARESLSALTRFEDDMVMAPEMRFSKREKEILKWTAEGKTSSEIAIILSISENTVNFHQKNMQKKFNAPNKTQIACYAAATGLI
experiment_notes: S. Typhimurium-pJNS25 SdiA reporter, agonism (luminescence)
Type: cell-based
condition_summary: potency of thiolactone over corresponding lactone (EC50 ratio)
In your answer, state the number alone without any accompanying words.

Exercise: Can you look up the measured fold increase of "CCCC(=O)N[C@H]1CCSC1=O" for me?
Key: 9.20

Exercise: Can you look up the measured fold increase of "COc1ccc(CC(=O)N[C@H]2CCSC2=O)cc1" for me?
Key: 6.49

Exercise: Can you look up the measured fold increase of "O=C(Cc1cccc([N+](=O)[O-])c1)N[C@H]1CCSC1=O" for me?
Key: 11.5

Exercise: Can you look up the measured fold increase of "CCCCCCCC(=O)N[C@H]1CCSC1=O" for me?
Key: 8.12

* * *

measured_on: SdiA (Salmonella enterica subsp. enterica serovar Typhimurium)
experiment_notes: S. Typhimurium-pJNS25 SdiA reporter, competitive antagonism against 10 nM L-OOHL
Type: cell-based
condition_summary: 100 μM compound; average ± STD, change in activity from 10 nM 2 (OOHL)
Could you please report measured Antagonism 100 μM Inhibition (%) for the items listed next?
State the answer as a number, implicitly in %.

Exercise: Item O=C(CCc1ccc(C(F)(F)F)cc1)N[C@H]1CCOC1=O [compound 9, reference compound] with SdiA (Salmonella enterica subsp. enterica serovar Typhimurium) - Antagonism 100 μM Inhibition (%)?
Key: 11

Exercise: Item "O=C(Cc1ccccc1F)N[C@H]1CCOC1=O" with SdiA (Salmonella enterica subsp. enterica serovar Typhimurium) - Antagonism 100 μM Inhibition (%)?
Key: -31

Exercise: Item "O=C(Cc1ccc(F)cc1)N[C@H]1CCOC1=O" with SdiA (Salmonella enterica subsp. enterica serovar Typhimurium) - Antagonism 100 μM Inhibition (%)?
Key: -8

Exercise: Item CCCCCC(O)CC(=O)N[C@H]1CCOC1=O (some centres unmarked) with SdiA (Salmonella enterica subsp. enterica serovar Typhimurium) - Antagonism 100 μM Inhibition (%)?
Key: 12

Exercise: Item "CCOc1ccc(C(=O)N[C@H]2CCOC2=O)cc1" with SdiA (Salmonella enterica subsp. enterica serovar Typhimurium) - Antagonism 100 μM Inhibition (%)?
Key: 13

Exercise: Item "O=C(N[C@H]1CCOC1=O)c1ccc2c(c1)OCO2" with SdiA (Salmonella enterica subsp. enterica serovar Typhimurium) - Antagonism 100 μM Inhibition (%)?
Key: -2

Exercise: Item CCCCCCCCCCCCCC(O)CC(=O)N[C@H]1CCOC1=O (some centres unmarked) with SdiA (Salmonella enterica subsp. enterica serovar Typhimurium) - Antagonism 100 μM Inhibition (%)?
Key: 15

Exercise: Item "O=C(Cc1ccccc1)N[C@H]1CCOC1=O" with SdiA (Salmonella enterica subsp. enterica serovar Typhimurium) - Antagonism 100 μM Inhibition (%)?
Key: -6

Exercise: Item "O=C(N[C@H]1CCOC1=O)c1ccc([N+](=O)[O-])cc1" with SdiA (Salmonella enterica subsp. enterica serovar Typhimurium) - Antagonism 100 μM Inhibition (%)?
Key: 20

Exercise: Item "COc1cc(C(C)=O)ccc1OCC(=O)N[C@H]1CCOC1=O" with SdiA (Salmonella enterica subsp. enterica serovar Typhimurium) - Antagonism 100 μM Inhibition (%)?
Key: 3

Exercise: Item "O=C(Cc1c(F)c(F)c(F)c(F)c1F)N[C@H]1CCOC1=O" with SdiA (Salmonella enterica subsp. enterica serovar Typhimurium) - Antagonism 100 μM Inhibition (%)?
Key: -32

Exercise: Item "O=C(Cc1ccc(C(F)(F)F)cc1)N[C@H]1CCOC1=O" with SdiA (Salmonella enterica subsp. enterica serovar Typhimurium) - Antagonism 100 μM Inhibition (%)?
Key: 8

Exercise: Item O=C(CCCc1ccccc1)NC1CCOC1=O (centres unmarked) with SdiA (Salmonella enterica subsp. enterica serovar Typhimurium) - Antagonism 100 μM Inhibition (%)?
Key: 16

Exercise: Item O=C(C=Cc1ccccc1)NC1CCOC1=O (centres unmarked) with SdiA (Salmonella enterica subsp. enterica serovar Typhimurium) - Antagonism 100 μM Inhibition (%)?
Key: -56

Exercise: Item CCCCCCCCCC(=O)CC(=O)N[C@H]1CCOC1=O [compound 1, reference compound] with SdiA (Salmonella enterica subsp. enterica serovar Typhimurium) - Antagonism 100 μM Inhibition (%)?
Key: 15

Exercise: Item "O=C(Cc1ccccc1[N+](=O)[O-])N[C@H]1CCOC1=O" with SdiA (Salmonella enterica subsp. enterica serovar Typhimurium) - Antagonism 100 μM Inhibition (%)?
Key: -17

Exercise: Item "O=C(N[C@H]1CCOC1=O)c1ccccc1" with SdiA (Salmonella enterica subsp. enterica serovar Typhimurium) - Antagonism 100 μM Inhibition (%)?
Key: -13

Exercise: Item "N#Cc1ccc(CC(=O)N[C@H]2CCOC2=O)cc1" with SdiA (Salmonella enterica subsp. enterica serovar Typhimurium) - Antagonism 100 μM Inhibition (%)?
Key: -17

Exercise: Item "O=C(CC(=O)N[C@H]1CCOC1=O)Cc1cccc(Cl)c1" with SdiA (Salmonella enterica subsp. enterica serovar Typhimurium) - Antagonism 100 μM Inhibition (%)?
Key: 1

Exercise: Item "O=C(N[C@H]1CCOC1=O)c1ccc(-c2ccccc2)cc1" with SdiA (Salmonella enterica subsp. enterica serovar Typhimurium) - Antagonism 100 μM Inhibition (%)?
Key: 26

Exercise: Item "O=C(Cc1cccc(C(F)(F)F)c1)N[C@H]1CCOC1=O" with SdiA (Salmonella enterica subsp. enterica serovar Typhimurium) - Antagonism 100 μM Inhibition (%)?
Key: 5

Exercise: Item "COc1ccc(CCC(=O)N[C@H]2CCOC2=O)cc1" with SdiA (Salmonella enterica subsp. enterica serovar Typhimurium) - Antagonism 100 μM Inhibition (%)?
Key: 6

Exercise: Item "O=C(CCc1cccc(Br)c1)N[C@H]1CCOC1=O" with SdiA (Salmonella enterica subsp. enterica serovar Typhimurium) - Antagonism 100 μM Inhibition (%)?
Key: 6
